Organism: Rattus norvegicus
Measurement Protocol: DrugMatrix - Regimen: Daily Repeat
Format: toxicity, organism-based, Sprague-Dawley
Parameters: regimen Daily Repeat, gender Male, age 6-8 weeks
Setup Conditions: in vivo, po, 0 mg/kg, 120 h, tissue Blood, route oral GAVAGE, dose level Control, time 5 day, […]

{"Compound": "CC(C)(C)NC(=O)[C@H]1CC[C@H]2[C@@H]3CC[C@H]4NC(=O)C=C[C@]4(C)[C@H]3CC[C@]12C [FINASTERIDE]", "MEAN CORPUSCULAR HEMOGLOBIN": "25 pg"}
{"Compound": "COc1cc(N)c(Cl)cc1C(=O)NC1CCN(CCCOc2ccc(F)cc2)CC1OC (centres undefined) [CISAPRIDE]", "MEAN CORPUSCULAR HEMOGLOBIN": "23.83 pg"}
{"Compound": "Clc1ccc(COC(Cn2ccnc2)c2ccc(Cl)cc2Cl)cc1 (centres undefined)", "MEAN CORPUSCULAR HEMOGLOBIN": "24.93 pg"}
{"Compound": "CO[C@H]1/C=C/O[C@@]2(C)Oc3c(C)c(O)c4c(O)c(c(/C=N/N5CCN(C6CCCC6)CC5)c(O)c4c3C2=O)NC(=O)/C(C)=C\\C=C\\[C@H](C)[C@H](O)[C@@H](C)[C@@H](O)[C@@H](C)[C@H](OC(C)=O)[C@@H]1C", "MEAN CORPUSCULAR HEMOGLOBIN": "23.25 pg"}

---

Species: Rattus norvegicus
Measurement Protocol: DrugMatrix - Regimen: Daily Repeat
Type: toxicity, organism-based, Sprague-Dawley
Set-up: regimen Daily Repeat, gender Male, age 6-8 weeks
Setup Conditions: in vivo, po, 2000 mg/kg, 72 h, tissue Blood, route oral GAVAGE, dose level High, time 3 day, vehicle .5 % CMC

{"Compound": "O=C1Nc2ccc(Cl)cc2C(c2ccccc2Cl)=NC1O (stereo unspecified)", "ERYTHROCYTE COUNT": "6.11 x10E6/uL"}
{"Compound": "CC1(C)S[C@@H]2[C@H](NC(=O)[C@H](N)c3ccccc3)C(=O)N2[C@H]1C(=O)O", "ERYTHROCYTE COUNT": "5.68 x10E6/uL"}
{"Compound": "COc1cc2nc(N3CCN(C(=O)c4ccco4)CC3)nc(N)c2cc1OC", "ERYTHROCYTE COUNT": "5.18 x10E6/uL"}
{"Compound": "CN/C(=N/CCSCc1nc[nH]c1C)NC#N", "ERYTHROCYTE COUNT": "5.85 x10E6/uL"}
{"Compound": "CN(C/C=C/C#CC(C)(C)C)Cc1cccc2ccccc12", "ERYTHROCYTE COUNT": "6.96 x10E6/uL"}
{"Compound": "NC1CCN(c2nc3c(cc2F)c(=O)c(C(=O)O)cn3-c2ccc(F)cc2F)C1 (stereo unspecified)", "ERYTHROCYTE COUNT": "6.75 x10E6/uL"}

---

Species: Rattus norvegicus
Measurement Protocol: DrugMatrix - Regimen: Daily Repeat
Assay type: toxicity, organism-based, Sprague-Dawley
Set-up: regimen Daily Repeat, gender Male, age 6-8 weeks
Setup Conditions: in vivo, ip, 40 mg/kg, […], tissue Blood, route intraperitoneal, dose level High, time 14 day, vehicle 100 % SALINE

{"Sequence Chain": "GENTAMICIN", "ABSOLUTE MONOCYTE": "190 cells/µL"}

---

Catalogue of LACTATE DEHYDROGENASE readings, one per entry.
Species on record: Rattus norvegicus
Measurement Protocol: DrugMatrix - Regimen: Daily Repeat
Assay type: toxicity, organism-based, Sprague-Dawley
Design: regimen Daily Repeat, gender Male, age 6-8 weeks
Setup Conditions: in vivo, po, 0 mg/kg, 120 h, tissue Plasma, route oral GAVAGE, dose level Control, time 5 day, vehicle 100 % WATER

{"Compound": "C[C@]12C=CC(=O)C=C1CC[C@@H]1[C@@H]2[C@@H](O)C[C@@]2(C)[C@H]1CC[C@]2(O)C(=O)CO", "Result Units": "u/L", "LACTATE DEHYDROGENASE": 238.83}
{"Compound": "CC(C)NCC(O)c1ccc(NS(C)(=O)=O)cc1 (centres undefined)", "Result Units": "u/L", "LACTATE DEHYDROGENASE": 168.5}
{"Compound": "CCN(CC)CCNC(=O)c1cc(S(C)(=O)=O)ccc1OC [TIAPRIDE]", "Result Units": "u/L", "LACTATE DEHYDROGENASE": 254.83}
{"Compound": "NNc1nncc2ccccc12 [HYDRALAZINE]", "Result Units": "u/L", "LACTATE DEHYDROGENASE": 220.33}
{"Compound": "CN1[C@@H]2CC[C@H]1C[C@@H](OC(=O)C(CO)c1ccccc1)C2 (some centres undefined)", "Result Units": "u/L", "LACTATE DEHYDROGENASE": 180}
{"Compound": "CN(C)CC[C@@H](c1ccc(Cl)cc1)c1ccccn1", "Result Units": "u/L", "LACTATE DEHYDROGENASE": 212.67}
{"Compound": "O.O.O.O.O.O.[Cl-].[Cl-].[Sr+2] [STRONTIUM CHLORIDE HEXAHYDRATE]", "Result Units": "u/L", "LACTATE DEHYDROGENASE": 254.83}
{"Compound": "Cc1ccc(NC(=O)c2ccc(CN3CCN(C)CC3)cc2)cc1Nc1nccc(-c2cccnc2)n1", "Result Units": "u/L", "LACTATE DEHYDROGENASE": 254.83}
{"Compound": "Cn1c(=O)c2[nH]cnc2n(C)c1=O.O", "Result Units": "u/L", "LACTATE DEHYDROGENASE": 487.5}

---

Below, each entry is listed with its recorded ABSOLUTE BASOPHIL.
Species on record: Rattus norvegicus
Measurement Protocol: DrugMatrix - Regimen: Daily Repeat
Format: toxicity, organism-based, Sprague-Dawley
Set-up: regimen Daily Repeat, gender Male, age 6-8 weeks
Setup Conditions: in vivo, po, 0 mg/kg, 72 h, tissue Blood, route oral GAVAGE, dose level Control, time 3 day, vehicle 100 % WATER

{"Molecule": "C[C@]12C=CC(=O)C=C1CC[C@@H]1[C@@H]2[C@@H](O)C[C@@]2(C)[C@H]1CC[C@]2(O)C(=O)CO", "ABSOLUTE BASOPHIL": "0 CELLS/uL"}
{"Molecule": "CN(C)CCOC(c1ccccc1)c1ccccc1 [DIPHENHYDRAMINE]", "ABSOLUTE BASOPHIL": "0 CELLS/uL"}
{"Molecule": "O.O.O.O.O.O.[Cl-].[Cl-].[Sr+2] [STRONTIUM CHLORIDE HEXAHYDRATE]", "ABSOLUTE BASOPHIL": "0 CELLS/uL"}
{"Molecule": "CS(=O)(=O)c1ccc([C@@H](O)[C@@H](CO)NC(=O)C(Cl)Cl)cc1", "ABSOLUTE BASOPHIL": "0 CELLS/uL"}
{"Molecule": "CCN(CC)CCNC(=O)c1cc(S(C)(=O)=O)ccc1OC [TIAPRIDE]", "ABSOLUTE BASOPHIL": "0 CELLS/uL"}
{"Molecule": "Cn1c(=O)c2[nH]cnc2n(C)c1=O.O", "ABSOLUTE BASOPHIL": "0 CELLS/uL"}
{"Molecule": "CC(C)NCC(O)c1ccc(NS(C)(=O)=O)cc1 (configuration not stated)", "ABSOLUTE BASOPHIL": "0 CELLS/uL"}
{"Molecule": "CN(C)CC[C@@H](c1ccc(Cl)cc1)c1ccccn1", "ABSOLUTE BASOPHIL": "0 CELLS/uL"}
{"Molecule": "CN1[C@@H]2CC[C@H]1C[C@@H](OC(=O)C(CO)c1ccccc1)C2 (some centres not stated)", "ABSOLUTE BASOPHIL": "0 CELLS/uL"}
{"Molecule": "Cc1ccc(NC(=O)c2ccc(CN3CCN(C)CC3)cc2)cc1Nc1nccc(-c2cccnc2)n1", "ABSOLUTE BASOPHIL": "0 CELLS/uL"}
{"Molecule": "NNc1nncc2ccccc12 [HYDRALAZINE]", "ABSOLUTE BASOPHIL": "0 CELLS/uL"}
{"Molecule": "CC(C)(C)CC(C)(C)c1ccc(OCCOCC[N+](C)(C)Cc2ccccc2)cc1.[Cl-] [BENZETHONIUM CHLORIDE]", "ABSOLUTE BASOPHIL": "0 CELLS/uL"}

---

Recorded CREATININE for the following compounds
Species: Rattus norvegicus
Measurement Protocol: DrugMatrix - Regimen: Daily Repeat
Type: toxicity, organism-based, Sprague-Dawley
Design: regimen Daily Repeat, gender Male, age 6-8 weeks
Setup Conditions: in vivo, sc, 0 mg/kg, 72 h, tissue Plasma, route subcutaneous, dose level Control, time 3 day, […]

{"Compound": "Oc1c(Cl)cc(Cl)c(Cl)c1Cc1c(O)c(Cl)cc(Cl)c1Cl", "CREATININE, mg/dL": 0.22}
{"Compound": "CCC(=O)O[C@]1(C(=O)CCl)[C@@H](C)C[C@H]2[C@@H]3CCC4=CC(=O)C=C[C@]4(C)[C@@]3(F)[C@@H](O)C[C@@]21C [CLOBETASOL PROPIONATE]", "CREATININE, mg/dL": 0.22}
{"Compound": "O=C(Nc1ccc(Br)cc1)c1cc(Br)cc(Br)c1O", "CREATININE, mg/dL": 0.22}
{"Compound": "CCN(CC)CCOCCC1=CCC2CC1C2(C)C (stereo not given)", "CREATININE, mg/dL": 0.19}
{"Compound": "CC(C)(C)CC(C)(C)c1ccc(OCCOCC[N+](C)(C)Cc2ccccc2)cc1.[Cl-] [BENZETHONIUM CHLORIDE]", "CREATININE, mg/dL": 0.22}
